# target-of-assay: Casein Kinase 2 (alpha and beta subunits) (Homo sapiens, UniProt P68400)
# Construct: purchased New England Biolabs 6010; host or cells: E. coli
# Sequence (P68400 whole entry): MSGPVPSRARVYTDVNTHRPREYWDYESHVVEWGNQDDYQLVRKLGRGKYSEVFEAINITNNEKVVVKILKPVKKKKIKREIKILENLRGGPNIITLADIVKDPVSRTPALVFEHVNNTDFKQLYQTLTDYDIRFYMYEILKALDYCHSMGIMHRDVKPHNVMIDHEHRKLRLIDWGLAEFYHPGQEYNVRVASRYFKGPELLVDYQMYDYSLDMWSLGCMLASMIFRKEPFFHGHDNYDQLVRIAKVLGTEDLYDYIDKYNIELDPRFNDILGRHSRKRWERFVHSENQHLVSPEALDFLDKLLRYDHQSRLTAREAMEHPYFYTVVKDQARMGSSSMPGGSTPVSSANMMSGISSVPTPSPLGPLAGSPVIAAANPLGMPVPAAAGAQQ
# Sequence (P67870 whole entry partner): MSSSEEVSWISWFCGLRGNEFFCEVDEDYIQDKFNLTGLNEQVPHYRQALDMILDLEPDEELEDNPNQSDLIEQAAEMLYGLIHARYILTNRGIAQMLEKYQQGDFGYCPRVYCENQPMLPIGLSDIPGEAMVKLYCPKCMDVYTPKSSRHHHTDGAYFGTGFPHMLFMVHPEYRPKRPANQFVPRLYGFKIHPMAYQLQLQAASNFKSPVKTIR
# test-description: Kinase Selectivity Assay Casein Kinase 2
# Assay type: biochemical
# experimental-context: Kinase Selectivity, Tables 2a-2k; read-out: Caseine Kinase 2 IC50
pIC50: −log10 of the molar value.

record-smiles: Cc1ccsc1C(=O)n1nc(Nc2ccc(S(=O)(=O)Nc3ccccn3)cc2)nc1N
pIC50: < 4.00
--
record-smiles: Nc1nc(Nc2ccc(S(=O)(=O)Nc3ccccn3)cc2)nn1C(=O)c1c(F)cccc1F
pIC50: < 4.00
--
record-smiles: Cc1nc(C)c(C(=O)n2nc(Nc3ccc(S(N)(=O)=O)cc3)nc2N)s1
pIC50: < 4.00
--
record-smiles: Nc1nc(Nc2ccc(S(N)(=O)=O)cc2)nn1C(=O)c1sccc1F
pIC50: < 4.00
--
record-smiles: CCc1ccc(C(=O)n2nc(Nc3ccc(NS(C)(=O)=O)cc3)nc2N)s1
pIC50: < 5.30
--
record-smiles: CCc1ccc(C(=O)n2nc(Nc3ccc(S(=O)(=O)NC)cc3)nc2N)s1
pIC50: 5.78
--
record-smiles: Nc1nc(Nc2ccc(S(N)(=O)=O)cc2)n(C(=S)Nc2c(F)cccc2F)n1
pIC50: < 4.00
--
record-smiles: Nc1nc(Nc2ccc(S(N)(=O)=O)cc2)nn1C(=O)c1ccsc1
pIC50: 5.12
--
record-smiles: Cc1ccc(F)c(C(=O)n2nc(Nc3ccc(S(N)(=O)=O)cc3)nc2N)c1Cl
pIC50: < 4.00
